Listed below: Melting Point values for each entry.
measurementType: Melting Point

| compound | result |
| --- | --- |
| C(#Cc1c2ccccc2c(C#Cc2ccccc2)c2ccccc12)c1ccccc1 | 251 to 253 °C |
| CC(C)C(=O)OC1C[C@H]2CC[C@@H](C1)N2C (stereo partly drawn) | 242 °C |
| Nc1ccc(C(=O)c2ccc(N)cc2)cc1 | 244 to 245 °C |

* * *

// Melting Point lookup, one value per entry

| molecule | Melting Point |
| --- | --- |
| COc1c(O)cc2c(c1OC)-c1ccc(OC)c(=O)cc1C(NC=O)CC2 (centres unmarked) | 263 to 267 °C |
| c1ccc(-c2nc3ncncc3[nH]2)cc1 | 261 to 262 °C |
| Nc1ccc2ccccc2c1-c1c(N)ccc2ccccc12 | 242.5 to 243 °C |
| CN(C)c1ccc(C(C)(C)C)cc1 | 250 to 253 °C |
| CC(=O)N[C@H]1[C@@H](OCc2ccccc2)O[C@@H]2CO[C@H](c3ccccc3)O[C@H]2[C@@H]1O | 263 to 264 °C |
| Oc1c2ccc3ccccc3c2cc2ccc3ccccc3c12 | 254 to 256 °C |
| Nc1ccn(C2C=CC(N)C(C(=O)O)O2)c(=O)n1 (centres unmarked) | 244 to 245 °C |
| O=c1nc(Cc2ccccc2)[nH]c2ccccc12 | 254 to 256 °C |
| CN1CC2CC(NC(=O)c3n[nH]c4ccccc34)CC(C1)N2C (centres unmarked) | 256 to 257 °C |
| O=c1ccc2c(O)cccc2o1 | 244 to 247 °C |
| O=C1NC(=O)C2(CCC(O)C2)c2ccncc21 (centres unmarked) | 240 to 243 °C |
| Nc1cccc2sc3ccccc3c(=O)c12 | 249 to 250 °C |
| Cc1cc2[nH]c3ccccc3c2cc1C | 251 to 253 °C |
| NC1=NCCC(CC(N)C(=O)O)N1 (centres unmarked) | 258 to 259 °C |
| CC1(C)CNC(=O)NC1 | 255 to 257 °C |
| CC(=O)Nc1cc2ccccc2c2ccc3ccccc3c12 | 250 to 251 °C |
| O=C1CCc2c1[nH]c1ccccc21 | 252 to 252.5 °C |

* * *

Structures can show the parent of a compound that is named as a salt.
measurementType: Melting Point

| molecule | measurementType | result |
| --- | --- | --- |
| c1ccc2c(c1)[nH]c1ccc3ccncc3c12 [Example 132] | Melting Point | 259 to 260 °C |
| CC1NCCc2c1[nH]c1cc(O)ccc21 (stereo not drawn) (as salt: hydrochloride) [Example 100] | Melting Point | 254 to 255 °C |
| NNc1ccc(C(N)=O)nn1 [Example 72] | Melting Point | 249 to 250 °C |
| c1cc2n[nH]nc2cn1 [Example 50] | Melting Point | 246 to 247 °C |
| Cc1c(C)c(CO)c(C)c(C)c1CO [Example 51] | Melting Point | 246 to 248 °C |
| CC(=O)Nc1cnn2c(C)nc3ccccc3c12 [Example 125] | Melting Point | 258 to 260 °C |
| NC(=O)C(CC(C(N)=O)C(N)=O)C(N)=O [Example 168] | Melting Point | 263 to 265 °C |
| Cc1ccc2cc3cc(C)ccc3cc2c1 [Example 80] | Melting Point | 250 °C |
| c1ccc(-c2nc(-c3ccccc3)c(-c3ccccc3)nc2-c2ccccc2)cc1 [Example 69] | Melting Point | 248 °C |
| Nc1nc(N)nc(Cc2ccccc2)n1 [Example 67] | Melting Point | 248 °C |
| Oc1cc2ccccc2c2cc3ccc4ccccc4c3cc12 [Example 130] | Melting Point | 258 to 259 °C |
| O=c1c2ccccc2oc2nc3ccccc3nc12 [Example 155] | Melting Point | 261 °C |
| CC1(C)CC2(CC(C)(C)NC(=O)N2)NC(=O)N1 [Example 190] | Melting Point | 265 to 268 °C |
| Cc1ccc2cnc(O)cc2c1 [Example 204] | Melting Point | 265 °C |
| CN[C@H]1CC[C@@H](c2ccccc2)c2ccccc21 (as salt: hydrochloride) [Example 6] | Melting Point | 241 to 242 °C |
